system.name: T1, human DR3 (TNFRSF25) expressed on cells (human, UniProt Q93038 25-417)
T1 sequence: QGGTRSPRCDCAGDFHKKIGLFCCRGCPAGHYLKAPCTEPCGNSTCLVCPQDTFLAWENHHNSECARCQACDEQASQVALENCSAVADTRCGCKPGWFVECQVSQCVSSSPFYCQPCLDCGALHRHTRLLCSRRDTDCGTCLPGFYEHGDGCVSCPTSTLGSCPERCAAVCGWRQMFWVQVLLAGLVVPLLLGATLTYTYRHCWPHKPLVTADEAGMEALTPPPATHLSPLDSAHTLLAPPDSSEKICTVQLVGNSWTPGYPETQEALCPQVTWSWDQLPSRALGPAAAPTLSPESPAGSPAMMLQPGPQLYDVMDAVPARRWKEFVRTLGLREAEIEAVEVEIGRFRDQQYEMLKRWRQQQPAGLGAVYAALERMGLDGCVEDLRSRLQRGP
assay.method.text: cell-based or functional assay
observed.property: Signal (FLU)
State just the number; it will be interpreted in FLU.

Examples with answers:
{"columns": ["binder", "Signal (FLU)"],
 "data": [
  ["VHg5/VLg12 (antibody, human IgG1, V domains shown, human IgG1) VH: QVQLQQSGGGLVQAGGSLRLSCAASGFTFTSYAMSWVRQAPGKGLEWVATISDGDSYSYFPDSVKDRFIISRDNAKNSLFLQMNSLRAEDTAVYYCARDRIYGSVQYYAMDYWGRGTLVTVSS VL: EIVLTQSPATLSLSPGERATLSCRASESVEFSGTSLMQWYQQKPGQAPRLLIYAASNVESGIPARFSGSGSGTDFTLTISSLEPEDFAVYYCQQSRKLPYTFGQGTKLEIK", "2.62e+06"],
  ["VHg2/VLg12 (antibody, human IgG1, V domains shown, human IgG1) VH: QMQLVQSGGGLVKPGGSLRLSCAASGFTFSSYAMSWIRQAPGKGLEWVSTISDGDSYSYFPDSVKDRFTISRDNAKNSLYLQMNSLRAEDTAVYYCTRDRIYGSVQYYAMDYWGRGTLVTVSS VL: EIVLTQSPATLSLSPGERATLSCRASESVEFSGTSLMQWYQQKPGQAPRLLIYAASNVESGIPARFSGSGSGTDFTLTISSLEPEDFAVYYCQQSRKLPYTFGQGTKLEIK", "2.68e+06"],
  ["VHg1/VLg11 (antibody, human IgG1, V domains shown, human IgG1; also called H1L11; VHg1/VL11) VH: QVQLVQSGGGLVQPGGSLRLSCAASGFTFSSYAMSWVRQAPGKGLEWVSTISDGDSYSYFPDSVKDRFTISRDNSKNTLYLQMNSLRAEDTSVYYCARDRIYGSVQYYAMDYWGQGTLVTVSS VL: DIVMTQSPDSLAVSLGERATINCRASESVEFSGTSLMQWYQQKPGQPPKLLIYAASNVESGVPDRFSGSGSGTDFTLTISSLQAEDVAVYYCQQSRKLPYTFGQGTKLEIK", "2.47e+06"],
  ["VHg2/VLg13 (antibody, human IgG1, V domains shown, human IgG1) VH: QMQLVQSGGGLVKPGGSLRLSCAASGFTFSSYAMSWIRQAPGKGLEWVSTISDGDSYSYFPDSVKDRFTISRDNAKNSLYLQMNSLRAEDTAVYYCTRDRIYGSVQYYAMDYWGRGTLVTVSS VL: DIQMTQSPSSLSASVGDRVTITCRASESVEFSGTSLMQWYQQKPGKAPKLLIYAASNVESGVPSRFSGSGSGTDFTFTISSLQPEDIATYYCQQSRKLPYTFGQGTKLEIK", "2.94e+06"],
  ["VHg9/VLg5 (antibody, human IgG1, V domains shown) VH: EVQLVESGGGLVKPGGSLRLSCAASGFTFSSYAMSWVRQAPGKGLEWVSTISDGDSYSYFPDSVKDRFTISRDNAKNSLYLQMNSLRAEDTAVYYCARDRIYGSVQYYAMDYWGQGTLVTVSS VL: EIVLTQSPGTLSLSPGERGTLSCRASESVEFSGTSLMQWYQQKPGQAPRLLIYAASNVESGIPDRFSGSGSETDFTLTISRLEPEDLAVYYCQQSRKLPYTFGQGTRLEIK", "3.05e+06"],
  ["VHg2/VLg4 (antibody, human IgG1, V domains shown, human IgG1) VH: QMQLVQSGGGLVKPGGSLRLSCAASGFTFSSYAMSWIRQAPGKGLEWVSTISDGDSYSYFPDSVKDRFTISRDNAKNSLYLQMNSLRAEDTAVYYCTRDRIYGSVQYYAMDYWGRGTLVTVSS VL: DVVMTQSPDSLAVSLGERATISCRASESVEFSGTSLMQWYQQKPRQPLKLLIYAASNVESGVPDRFSGSGSGTDFTLTISSLQAEDVAVYYCQQSRKLPYTFGQGTRLEIK", "2.21e+06"]
]}

QUERY: So what's the measured Signal (FLU) for this one? VHg5/VLg5 (antibody, human IgG1, V domains shown) VH: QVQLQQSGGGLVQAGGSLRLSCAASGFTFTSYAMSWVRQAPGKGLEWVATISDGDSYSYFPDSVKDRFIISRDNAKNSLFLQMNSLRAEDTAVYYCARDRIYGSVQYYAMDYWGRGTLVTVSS VL: EIVLTQSPGTLSLSPGERGTLSCRASESVEFSGTSLMQWYQQKPGQAPRLLIYAASNVESGIPDRFSGSGSETDFTLTISRLEPEDLAVYYCQQSRKLPYTFGQGTRLEIK
RESULT: 2.42e+06

QUERY: So what's the measured Signal (FLU) for this one? VHg6/VLg5 (antibody, human IgG1, V domains shown) VH: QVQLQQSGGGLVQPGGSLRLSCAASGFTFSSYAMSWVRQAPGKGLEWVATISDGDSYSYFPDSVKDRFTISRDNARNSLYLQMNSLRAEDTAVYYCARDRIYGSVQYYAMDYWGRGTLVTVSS VL: EIVLTQSPGTLSLSPGERGTLSCRASESVEFSGTSLMQWYQQKPGQAPRLLIYAASNVESGIPDRFSGSGSETDFTLTISRLEPEDLAVYYCQQSRKLPYTFGQGTRLEIK
RESULT: 2.85e+06

QUERY: So what's the measured Signal (FLU) for this one? VHg2/VLg5 (antibody, human IgG1, V domains shown) VH: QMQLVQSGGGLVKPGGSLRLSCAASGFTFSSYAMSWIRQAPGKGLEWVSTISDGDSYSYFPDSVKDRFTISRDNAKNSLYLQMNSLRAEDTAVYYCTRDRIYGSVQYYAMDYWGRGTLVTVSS VL: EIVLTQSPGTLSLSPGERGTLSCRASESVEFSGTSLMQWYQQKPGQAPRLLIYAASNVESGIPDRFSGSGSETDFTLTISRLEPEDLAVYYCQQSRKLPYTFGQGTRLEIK
RESULT: 2.52e+06

QUERY: So what's the measured Signal (FLU) for this one? VHg3/VLg13 (antibody, human IgG1, V domains shown, human IgG1) VH: EVQLVQSGGGLVKPGGSLRLSCAASGFKFSSYAMSWVRQAPGKGLEWLSTISDGDSYSYFPDSVKDRFIISRDNAKNSLYLQMNSLRVEDTGVYYCARDRIYGSVQYYAMDYWGQGTLVTVSS VL: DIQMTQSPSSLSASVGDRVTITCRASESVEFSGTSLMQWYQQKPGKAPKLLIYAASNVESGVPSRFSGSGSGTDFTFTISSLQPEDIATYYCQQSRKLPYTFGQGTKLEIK
RESULT: 2.66e+06

Measured values drawn from patent WO2025083273A1 for this set.
